- System: Rattus norvegicus
- Experiment description: Tested in vivo for anti-hypercholesterolaemic activity in male Sprague-Dawley rat.
- Type: functional
Measured Change values are reported for all entries that follow.
Outcome measure: Change (%)

>  <Compound>
c1ccc(-c2nc(SCC3OCCO3)[nH]c2-c2ccccc2)cc1

>  <Outcome measure>
Change

>  <Test result>
-29

$$$$
>  <Compound>
C[C@@]1(O)CC(=O)OC(CSc2nc(-c3ccc(Cl)cc3)c(-c3ccc(Cl)cc3)[nH]2)C1 (stereo not given in full)

>  <Outcome measure>
Change

>  <Test result>
-11

$$$$
>  <Compound>
CCOC(CCSc1nc(-c2ccccc2)c(-c2ccccc2)[nH]1)OCC

>  <Outcome measure>
Change

>  <Test result>
4

$$$$
>  <Compound>
c1ccc(-c2nc(SCC3OCCCO3)[nH]c2-c2ccccc2)cc1

>  <Outcome measure>
Change

>  <Test result>
-10

$$$$
>  <Compound>
CC1(C)CC(=O)OC(CSc2nc(-c3ccccc3)c(-c3ccccc3)[nH]2)C1 (stereo not given)

>  <Outcome measure>
Change

>  <Test result>
-17

$$$$
>  <Compound>
c1ccc(-c2nc(SCCCC3OCCCO3)[nH]c2-c2ccccc2)cc1

>  <Outcome measure>
Change

>  <Test result>
-57

$$$$
>  <Compound>
C[C@]1(O)CC(=O)OC(CSc2nc(-c3ccccc3)c(-c3ccccc3)[nH]2)C1 (stereo not given in full)

>  <Outcome measure>
Change

>  <Test result>
-35

$$$$
>  <Compound>
CC(O)(CC(=O)[O-])CC(O)CSc1nc(-c2ccccc2)c(-c2ccccc2)[nH]1.[Na+] (stereo not given)

>  <Outcome measure>
Change

>  <Test result>
-33

$$$$
>  <Compound>
C[C@@]1(O)CC(=O)OC(CSc2nc(-c3ccccc3)c(-c3ccccc3)[nH]2)C1 (stereo not given in full)

>  <Outcome measure>
Change

>  <Test result>
-105

$$$$
>  <Compound>
O=C1CCCC(CSc2nc(-c3ccccc3)c(-c3ccccc3)[nH]2)O1 (stereo not given)

>  <Outcome measure>
Change

>  <Test result>
16

$$$$
